IC50 reference
# test-target: Fatty-acid amide hydrolase 1 (Homo sapiens, UniProt O00519)
# Sequence (O00519 whole entry): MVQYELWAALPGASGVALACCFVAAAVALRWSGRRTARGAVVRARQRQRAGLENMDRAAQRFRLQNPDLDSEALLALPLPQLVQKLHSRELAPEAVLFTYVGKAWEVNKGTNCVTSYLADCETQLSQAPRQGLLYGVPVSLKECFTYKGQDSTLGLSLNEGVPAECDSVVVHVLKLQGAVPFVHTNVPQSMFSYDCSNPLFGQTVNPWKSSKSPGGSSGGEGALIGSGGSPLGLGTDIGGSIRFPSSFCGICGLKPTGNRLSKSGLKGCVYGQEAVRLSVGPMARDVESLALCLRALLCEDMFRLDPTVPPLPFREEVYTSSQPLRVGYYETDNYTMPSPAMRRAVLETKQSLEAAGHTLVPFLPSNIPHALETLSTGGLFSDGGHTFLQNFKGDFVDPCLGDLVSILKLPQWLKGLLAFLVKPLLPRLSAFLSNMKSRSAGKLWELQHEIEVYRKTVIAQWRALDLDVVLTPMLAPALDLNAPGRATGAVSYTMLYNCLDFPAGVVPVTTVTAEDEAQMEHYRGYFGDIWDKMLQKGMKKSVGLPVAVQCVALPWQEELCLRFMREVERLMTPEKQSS
# experiment-notes: Inhibition of human recombinant FAAH expressed in COS7 cells using anandamide as substrate
# Assay type: cell-based, COS-7
# measurement-conditions: read-out: IC50
Number in µM, nothing else.

smi: O=C(N1CCN(Cc2ccc(Oc3ccccc3)cc2)CC1)n1nnc2ccccc21
IC50, µM: 0.708

Ask: For O=C(N1CCN(C(c2ccc(F)cc2)c2ccc(F)cc2)CC1)n1cncn1 , what is its reported IC50?
Result: 0.282

Ask: Look at this compound and give its reported IC50. O=C(Nc1ccccc1)N1CCN(Cc2cccc(Oc3ccccc3)c2)CC1
Result: 3.02

Ask: Suppose we examine the compound CCOC(=O)N1CCN(C(=O)n2cncn2)CC1 ; what IC50 value has been reported?
Result: 0.141

Ask: May I ask what IC50 has been recorded for O=C(N1CCN(Cc2cccc(Oc3ccccc3)c2)CC1)n1cncn1 ?
Result: 0.0027

Ask: What value of measured IC50 is listed for O=C(N1CCN(C(c2ccccc2)c2ccccc2)CC1)n1cncn1 ?
Result: 0.452

Ask: Which IC50 is listed for O=C(N1CCN(Cc2cccc(Oc3ccccc3)c2)CC1)n1ccnc1 ?
Result: 0.015

Ask: Form field: reported IC50 of O=C(N1CCN(c2ccccc2)CC1)n1cncn1
Result: 0.006

Ask: Which IC50 is listed for O=C(N1CCN(Cc2cccc(Oc3ccccc3)c2)CC1)n1nnc2cccnc21 ?
Result: 0.023

Ask: I would be grateful if you could share the reported IC50 for O=C(N1CCC(C(c2ccc3c(c2)OCO3)c2ccc3c(c2)OCO3)CC1)n1cncn1 .
Result: 4.8

Ask: Suppose we examine the compound O=C(N1CCN(C(c2ccccc2)c2ccccc2)CC1)n1ccnc1 ; what IC50 value has been reported?
Result: 2.3

---

# test-target: Fatty-acid amide hydrolase 1 (Homo sapiens)
# experiment-notes: Inhibition of human recombinant FAAH expressed in COS7 cells using anandamide as substrate assessed as remaining activity at 10 uM
# Assay type: cell-based
# measurement-conditions: COS-7
assay-metric: Activity (%)
Respond numerically; units are % and should not be typed.

In the examples that follow, each entry is paired with its recorded Activity.
smi: O=C(OCc1ccccc1)N1CCC(C(O)(c2ccc3c(c2)OCO3)c2ccc3c(c2)OCO3)CC1
Activity [%]: 92
--
smi: O=C(Nc1ccccc1)N1CCN(C(c2ccccc2)c2ccccc2)CC1
Activity [%]: 88
--
smi: COc1ccc(NC(=O)N2CCN(C(c3ccccc3)c3ccccc3)CC2)cc1
Activity [%]: 89
--
smi: O=C(Oc1ccc([N+](=O)[O-])cc1)N1CCC(=C(c2ccc3c(c2)OCO3)c2ccc3c(c2)OCO3)CC1
Activity [%]: 89

Ask: Dear colleague, I am looking for the recorded Activity of the following compound: O=C(N1CCN(C(c2ccccc2)c2ccccc2)CC1)n1cnc(-c2ccccc2)c1
Result: 62

---

# Organism: Homo sapiens
# experiment-notes: Selectivity ratio of IC50 for human recombinant FAAH to IC50 for human recombinant MAGL
assay-metric: Ratio IC50
API doc: respond with a numeric literal and nothing else, no unit.

// worked examples, Ratio IC50 included
smi: O=C(N1CCC(C(O)(c2ccc3c(c2)OCO3)c2ccc3c(c2)OCO3)CC1)n1cncn1
Ratio IC50: 2320
//
smi: O=C(N1CCN(Cc2cccc(Oc3ccccc3)c2)CC1)n1nnc2cccnc21
Ratio IC50: 4
//
smi: O=C(N1CCN(Cc2cccc(Oc3ccccc3)c2)CC1)n1nnc2ccccc21
Ratio IC50: 10

Ask: Could you share which Ratio IC50 value was measured for O=C(N1CCN(Cc2cccc(Oc3ccccc3)c2)CC1)n1cncn1 ?
Result: 4.5

---

# test-target: Monoglyceride lipase (Homo sapiens)
# experiment-notes: Inhibition of human recombinant MAGL expressed in HEK293 cells using 2-AG as substrate assessed as remaining activity at 10 uM
assay-metric: Activity

Some solved cases for reference:
smi: O=C(N1CCN(C(c2ccccc2)c2ccccc2)CC1)n1ccnc1
Activity: 51%
--
smi: O=C(Oc1ccc([N+](=O)[O-])cc1)N1CCC(=C(c2ccc3c(c2)OCO3)c2ccc3c(c2)OCO3)CC1
Activity: 85%
--
smi: O=C(N1CCN(C(c2ccccc2)c2ccccc2)CC1)n1cnc(-c2ccccc2)c1
Activity: 93%

Ask: Report Activity for CCCCc1ccc(NC(=O)N2CCN(C(c3ccccc3)c3ccccc3)CC2)cc1 please.
Result: 92%

Ask: What measured Activity goes with O=C(OCc1ccccc1)N1CCC(C(O)(c2ccc3c(c2)OCO3)c2ccc3c(c2)OCO3)CC1 ?
Result: 92%

Ask: Recorded Activity of O=C(Nc1cccnc1)N1CCN(C(c2ccccc2)c2ccccc2)CC1 , please.
Result: 101%

Ask: Which Activity is reported for this compound? O=C(OCC(Cl)(Cl)Cl)N1CCC(C(O)(c2ccc3c(c2)OCO3)c2ccc3c(c2)OCO3)CC1
Result: 89%

Ask: State the recorded Activity for this entry: O=C(Nc1ccc([N+](=O)[O-])cc1)N1CCN(C(c2ccccc2)c2ccccc2)CC1
Result: 58%

Ask: Using the record for O=C(Nc1ccc([N+](=O)[O-])cc1)N1CCN(Cc2cccc(Oc3ccccc3)c2)CC1 , report its Activity.
Result: 102%

Ask: Returns the measured Activity for the input compound. Input: O=C(Nc1ccccc1)N1CCN(C(c2ccccc2)c2ccccc2)CC1
Result: 62%

Ask: I'd like to know its Activity. The compound in question is O=C(Nc1ccccn1)N1CCN(C(c2ccccc2)c2ccccc2)CC1
Result: 94%

Ask: // returns reported Activity for input O=C(Nc1ccc(C(F)(F)F)cc1)N1CCN(C(c2ccccc2)c2ccccc2)CC1
Result: 96%

Ask: # get_value(readout='Activity', item= O=C(Nc1ccccc1)N1CCN(Cc2cccc(Oc3ccccc3)c2)CC1 )
Result: 98%

Ask: Would you kindly share the measured Activity for COc1ccc(NC(=O)N2CCN(Cc3cccc(Oc4ccccc4)c3)CC2)cc1 ?
Result: 78%

Ask: Find the recorded Activity belonging to COc1ccc(NC(=O)N2CCN(C(c3ccccc3)c3ccccc3)CC2)cc1 and report it.
Result: 86%

---

# test-target: Fatty-acid amide hydrolase 1 (Homo sapiens) (UniProt O00519)
# Sequence (O00519 whole entry): as above
# experiment-notes: Inhibition of human recombinant FAAH expressed in COS7 cells using anandamide as substrate assessed as remaining activity at 10 uM
# Assay type: cell-based
# measurement-conditions: COS-7
Reported Activity values for the following compounds.
Write down the numeric answer in % and omit the unit.

Some solved entries appear below for comparison.
smi: COc1ccc(NC(=O)N2CCN(Cc3cccc(Oc4ccccc4)c3)CC2)cc1
test-target: Fatty-acid amide hydrolase 1 (Homo sapiens) (UniProt O00519)
value: 56

smi: O=C(Nc1ccc(C(F)(F)F)cc1)N1CCN(C(c2ccccc2)c2ccccc2)CC1
test-target: Fatty-acid amide hydrolase 1 (Homo sapiens) (UniProt O00519)
value: 86

Ask: Any idea what Activity was measured for O=C(Oc1ccc([N+](=O)[O-])cc1)N1CCN(Cc2ccc(Oc3ccccc3)cc2)CC1 ?
Result: 43

Ask: Fill in the blank: the reported Activity of O=C(Nc1ccc([N+](=O)[O-])cc1)N1CCN(Cc2cccc(Oc3ccccc3)c2)CC1 is ____.
Result: 98

Ask: Which Activity value belongs to O=C(Nc1ccc([N+](=O)[O-])cc1)N1CCN(C(c2ccccc2)c2ccccc2)CC1 ?
Result: 84

Ask: Need Activity of O=C(Oc1ccc([N+](=O)[O-])cc1)N1CCC(C(c2ccc3c(c2)OCO3)c2ccc3c(c2)OCO3)CC1 , thanks.
Result: 88

Ask: I am curious: what Activity value has been reported for O=C(OCC(Cl)(Cl)Cl)N1CCC(C(O)(c2ccc3c(c2)OCO3)c2ccc3c(c2)OCO3)CC1 ?
Result: 90

Ask: Suppose we examine the compound O=C(Nc1ccccn1)N1CCN(C(c2ccccc2)c2ccccc2)CC1 ; what Activity value has been reported?
Result: 87

Ask: Fill in the blank: the reported Activity of O=C(Oc1ccc([N+](=O)[O-])cc1)N1CCN(C(c2ccccc2)c2ccccc2)CC1 is ____.
Result: 86

---

# test-target: Fatty-acid amide hydrolase 1 (Homo sapiens)
# experiment-notes: Inhibition of human recombinant FAAH expressed in COS7 cells using anandamide as substrate
# Assay type: cell-based, COS-7
# measurement-conditions: read-out: pIC50 (converted)
Collected log10 IC50 values appear next to each entry.
Recall that a logarithmic scale is used here: each number is log10 of IC50 in nM.

Solved entries (count: 2):
smi: CCOC(=O)N1CCN(C(=O)n2cncn2)CC1
test-target: Fatty-acid amide hydrolase 1 (Homo sapiens)
assay-metric: log10 IC50
value: 2.15
//
smi: O=C(N1CCN(C(c2ccc(F)cc2)c2ccc(F)cc2)CC1)n1cncn1
test-target: Fatty-acid amide hydrolase 1 (Homo sapiens)
assay-metric: log10 IC50
value: 2.45

Ask: log10 IC50 of O=C(N1CCN(C(c2ccccc2)c2ccccc2)CC1)n1ccnc1 on Fatty-acid amide hydrolase 1 (Homo sapiens)?
Result: 3.36

Ask: Lab request: please report log10 IC50 under test system Fatty-acid amide hydrolase 1 (Homo sapiens) for O=C(N1CCN(Cc2cccc(Oc3ccccc3)c2)CC1)n1nnc2cccnc21
Result: 1.36

Ask: Requested read-out log10 IC50, target or system Fatty-acid amide hydrolase 1 (Homo sapiens), entry O=C(N1CCN(Cc2cccc(Oc3ccccc3)c2)CC1)n1ccnc1
Result: 1.19

Ask: Write down the reported log10 IC50 of O=C(Nc1ccccc1)N1CCN(Cc2cccc(Oc3ccccc3)c2)CC1 , test system: Fatty-acid amide hydrolase 1 (Homo sapiens).
Result: 3.48
